- Test system: hypercholesterolemic hamster
- Assay Method Text: Hypocholesterolemic activity in hamsters fed a 0.5%-cholesterol diet
- Format: in vivo
- Stated Conditions: Mesocricetus auratus, po, 168 h; 3 mg/kg orally daily, dosage day 7; changed percent vs rise in total cholesterol on high-cholesterol diet, negative = hypocholesterolemic action; read-out: Serum cholesterol (%)
- Description: [Hypocholesterolemic Agents Using the Hypercholesterolemic Hamster] Hamsters were derived into groups with 3 animals per group and fed a 0.5%-cholesterol containing CE-2 diet (CLEA Japan Inc.) for 4 or 7 days. […] Serum cholesterol was measured by enzymatic method using cholesterol E-test wako (Wako Pure Chemical Industries). […] The test compounds with the optical rotation value in the compounds 1–58 were evaluated as the chiral compounds.
# Lookup of reported change in vivo at 3 mg/kg keyed by entry
Result Type: change in vivo at 3 mg/kg (%)

> print(dat)
                                   compound           experimental.target  reported.result
1  Cc1ccc(N2C(=O)[C@H](CC[C@H](O)c3ccc(F)cc3)[C@H]2c2ccc(C[C@@H]3O[C@H](CO)[C@@H](O)[C@H](O)[C@H]3O)cc2)cc1  hypercholesterolemic hamster             -156
2  O=C1[C@H](CCCc2ccc(F)cc2)[C@@H](c2ccc(C[C@@H]3O[C@H](CO)[C@@H](O)[C@H](O)[C@H]3O)cc2)N1c1ccc(F)cc1 (relative stereo)  hypercholesterolemic hamster             -120
3  O=C1[C@H](CC[C@H](O)c2ccc(F)cc2)[C@@H](c2ccc(C[C@@H]3O[C@H](CO)[C@@H](O)[C@H](O)[C@H]3O)cc2)N1c1ccccc1  hypercholesterolemic hamster             -177
4  Cc1ccc(N2C(=O)[C@H](CCC(=O)c3ccc(F)cc3)[C@H]2c2ccc(C[C@@H]3O[C@H](CO)[C@@H](O)[C@H](O)[C@H]3O)cc2)cc1  hypercholesterolemic hamster             -130

====

# Lookup of reported melting point keyed by entry
Result Type: melting point

> print(dat)
                  compound.structure.string  reported.result
1  O=C(O)[C@H]1O[C@@H](CCc2ccc([C@@H]3[C@@H](CC[C@H](O)c4ccc(F)cc4)C(=O)N3c3ccccc3)cc2)[C@H](O)[C@@H](O)[C@@H]1O    110 to 112 °C
2  Cc1ccc(N2C(=O)[C@H](CCOc3ccc(F)cc3)[C@H]2c2ccc(C[C@@H]3O[C@H](CO)[C@@H](O)[C@H](O)[C@H]3O)cc2)cc1      96 to 98 °C
3  Cc1ccc(N2C(=O)[C@H](CC[C@H](O)c3ccc(F)cc3)[C@H]2c2ccc([C@@H]3O[C@H](CO)[C@@H](O)[C@H](O)[C@H]3O)cc2)cc1      79 to 81 °C

====

# Lookup of reported melting point keyed by entry
Result Type: melting point

> print(dat)
                  compound.structure.string  reported.result
1  O=C(O)[C@H]1O[C@@H](Cc2ccc([C@@H]3[C@@H](CC[C@H](O)c4ccc(F)cc4)C(=O)N3c3ccc(F)cc3)cc2)[C@H](O)[C@@H](O)[C@@H]1O      82 to 84 °C
2  O=C1[C@H](CC[C@H](O)c2ccc(F)cc2)[C@@H](c2ccc(CCCC[C@@H]3O[C@H](CO)[C@@H](O)[C@H](O)[C@H]3O)cc2)N1c1ccc(F)cc1      81 to 83 °C
3  O=C1[C@H](CC[C@H](O)c2ccc(F)cc2)[C@@H](c2ccc(/C=C/COC[C@@H]3O[C@H](CO)[C@@H](O)[C@H](O)[C@H]3O)cc2)N1c1ccc(F)cc1      65 to 67 °C
4  O=C1[C@H](CC[C@H](O)c2ccc(F)cc2)[C@@H](c2ccc(F)cc2)N1c1ccc(C[C@@H]2O[C@H](CO)[C@@H](O)[C@H](O)[C@H]2O)cc1    200 to 201 °C
5  Cc1ccc(N2C(=O)[C@H](CC[C@H](O)c3ccc(F)cc3)[C@H]2c2ccc(C[C@@H]3O[C@H](CO)[C@@H](O)[C@H](O)[C@H]3O)cc2)cc1    102 to 104 °C
